- Protocol Notes: activity coefficient (dimensionless); of the first substance listed, at infinite dilution; xn = mol fraction of the nth substance listed
- Experimental Setup: 348.15 K; 101.33 kPa; Liquid; Chromatography; x1 = 0
Lab note: anything with activity coefficient below 7 is marked condition met; values at 7 or higher are marked condition not met.

// known answers, use as guide
[[record]]
compound = "CC(C)=O [acetone] + C[n+]1ccn(CCCO)c1.N#CN=C=[N-]"
qualitative_label = "condition met"

[[record]]
compound = "CC(C)=O [acetone] + C[N+]1(CCCO)CCOCC1.N#C[N-]C#N"
qualitative_label = "condition met"

[[record]]
compound = "C#CCCCCCC [1-octyne] + C[n+]1ccn(CCCO)c1.N#CN=C=[N-]"
qualitative_label = "condition not met"

[[record]]
compound = "CCCCO [butan-1-ol] + C[N+]1(CCCO)CCOCC1.N#C[N-]C#N"
qualitative_label = "condition met"

[[record]]
compound = "CCCCCCCCCC [decane] + C[N+]1(CCCO)CCOCC1.N#C[N-]C#N"
qualitative_label = "condition not met"

[[record]]
compound = "CCCO [propan-1-ol] + C[N+]1(CCCO)CCOCC1.N#C[N-]C#N"
qualitative_label = "condition met"


Qu. For CC(C)O [propan-2-ol] + C[N+]1(CCCO)CCOCC1.N#C[N-]C#N , is the recorded activity coefficient below the cut-off of 7?
Ans. condition met

Qu. Lab note: activity coefficient threshold 7. Does this compound come in strictly under it? COC(C)(C)C [2-methoxy-2-methylpropane] + C[N+]1(CCCO)CCOCC1.N#C[N-]C#N
Ans. condition not met

---

- Protocol Notes: activity coefficient (dimensionless); of the first substance listed, at infinite dilution; xn = mol fraction of the nth substance listed
- Experimental Setup: 368.15 K; 101.33 kPa; Liquid; Chromatography; x1 = 0
Outcome Measure: activity coefficient
// keep it numeric: no unit symbol after the value

Record excerpt, results attached:
[[record]]
compound = "CCOCC [diethyl ether] + C[n+]1ccn(CCCO)c1.N#CN=C=[N-]"
outcome_measure = "activity coefficient"
quantitative_readout = 20.8

[[record]]
compound = "CCCOCCC [dipropyl ether] + C[N+]1(CCCO)CCOCC1.N#C[N-]C#N"
outcome_measure = "activity coefficient"
quantitative_readout = 148

[[record]]
compound = "CC(C)OC(C)C [diisopropyl ether] + C[n+]1ccn(CCCO)c1.N#CN=C=[N-]"
outcome_measure = "activity coefficient"
quantitative_readout = 84.3

[[record]]
compound = "c1ccncc1 [pyridine] + C[n+]1ccn(CCCO)c1.N#CN=C=[N-]"
outcome_measure = "activity coefficient"
quantitative_readout = 1.75

[[record]]
compound = "c1ccccc1 [benzene] + C[N+]1(CCCO)CCOCC1.N#C[N-]C#N"
outcome_measure = "activity coefficient"
quantitative_readout = 7.57

[[record]]
compound = "CCCO [propan-1-ol] + C[n+]1ccn(CCCO)c1.N#CN=C=[N-]"
outcome_measure = "activity coefficient"
quantitative_readout = 1.78


Qu. May I ask what activity coefficient has been recorded for C#CCCCC [1-hexyne] + C[N+]1(CCCO)CCOCC1.N#C[N-]C#N ?
Ans. 37

Qu. # get_value(readout='activity coefficient', item= c1ccncc1 [pyridine] + C[N+]1(CCCO)CCOCC1.N#C[N-]C#N )
Ans. 2.15

Qu. Requested field: activity coefficient. Item: CCC(=O)OC [methyl propanoate] + C[n+]1ccn(CCCO)c1.N#CN=C=[N-]
Ans. 6.34

Qu. What value of measured activity coefficient is listed for CCCC(C)=O [pentan-2-one] + C[N+]1(CCCO)CCOCC1.N#C[N-]C#N ?
Ans. 8.44

Qu. Which activity coefficient is listed for Cc1ccccc1C [1,2-dimethylbenzene] + C[n+]1ccn(CCCO)c1.N#CN=C=[N-] ?
Ans. 12.8

Qu. Data request, read-out activity coefficient, for C=CCCCCCCCC [1-decene] + C[N+]1(CCCO)CCOCC1.N#C[N-]C#N
Ans. 875

Qu. Entry CC(C)CO [2-methyl-1-propanol] + C[N+]1(CCCO)CCOCC1.N#C[N-]C#N : reported activity coefficient = ?
Ans. 4

Qu. Which activity coefficient reading was recorded for the compound CCOC(C)=O [ethyl acetate] + C[n+]1ccn(CCCO)c1.N#CN=C=[N-] ?
Ans. 6.86

Qu. What value of activity coefficient has been recorded for this entry: C1CCCCCC1 [cycloheptane] + C[N+]1(CCCO)CCOCC1.N#C[N-]C#N
Ans. 185

Qu. Please look up its activity coefficient: CCC(C)O (stereo not drawn) [butan-2-ol] + C[N+]1(CCCO)CCOCC1.N#C[N-]C#N
Ans. 4.09

Qu. Look up activity coefficient for this compound: CCCC(=O)OC [methyl butanoate] + C[N+]1(CCCO)CCOCC1.N#C[N-]C#N
Ans. 16.5

Qu. Request the reported activity coefficient associated with CCC(C)O (stereo not drawn) [butan-2-ol] + C[n+]1ccn(CCCO)c1.N#CN=C=[N-]
Ans. 2.71

Qu. Fill in the blank: the reported activity coefficient of CCCCCCCCCC [decane] + C[N+]1(CCCO)CCOCC1.N#C[N-]C#N is ____.
Ans. 1310

Qu. # query: activity coefficient of entry CCCCCO [pentan-1-ol] + C[N+]1(CCCO)CCOCC1.N#C[N-]C#N
Ans. 6.76

Qu. Bench note: what activity coefficient did CC(C)=O [acetone] + C[N+]1(CCCO)CCOCC1.N#C[N-]C#N show?
Ans. 2.59

Qu. Name the reported activity coefficient value associated with the compound O [water] + C[n+]1ccn(CCCO)c1.N#CN=C=[N-]
Ans. 0.41

Qu. // returns reported activity coefficient for input CCC[N+](=O)[O-] [1-nitropropane] + C[n+]1ccn(CCCO)c1.N#CN=C=[N-]
Ans. 3.17

Values were extracted from the NIST ThermoML archive (doi:10.1016/j.jct.2017.11.017).
